# System: KM-20L2
# assay-notes: NCI tumour cell line growth inhibition, 48 h
Activity calls are given as the source filed them. No stated cut-off is given here; in the data, active = GI50 up to about 1.1 µM and inactive = higher.
Pick from true = active, false = inactive when you respond.

{"compound": "Cc1c2ccccc2c(=O)n2c(-c3ccccn3)cccc12", "cat": "false"}
{"compound": "CSc1ccc2c(cc1=O)[C@@H](NC(=O)c1ccc(Cl)cc1)CCc1cc(O)c(O)c(O)c1-2", "cat": "false"}
{"compound": "O=C1OC(=O)C2C1C1C(c3ccccc3)=C(c3ccccc3)C2(O)C2C(=O)OC(=O)C12 (stereo not given)", "cat": "false"}

Asked: Any idea what this test logged for O=C(O)c1cc2c3ccccc3nc-2c[nH]1 ?
Given back: false

Asked: Any idea what this test logged for C/C1=C\[C@H](C)C[C@H](C)OC(=O)C[C@H](c2ccc(O)cc2)NC(=O)[C@@H](Cc2c(Br)[nH]c3ccccc23)N(C)C(=O)[C@H](C)NC(=O)[C@@H](C)C1 [JASPAMIDE] ?
Given back: true
